Measured z-score of individual entries
# experiment: inhibitors of hydroxyurea-induced Chk1 phosphorylation, primary screen, imaging, HeLa, phospho-Chk1 nuclear intensity (AID 1187); further: test concentration not given here
# reported conditions: hydroxyurea-induced phospho-Chk1 immunofluorescence imaging, higher = more signal
The source made the active and inactive calls. How the calls were made is not given here.

| given smiles | z-score |
| --- | --- |
| COCCOC(=O)N1C(=O)[C@@]2(c3cc(C#CCC(C(=O)OC)C(=O)OC)ccc31)[C@H](C(=O)N1CCN(c3ncccn3)CC1)[C@H]1C(=O)O[C@H](c3ccccc3)[C@H](c3ccccc3)N1[C@@H]2c1ccc(OCCO)cc1 | -0.833 (inactive) |
| CCOC(=O)[C@H]1C/C=C/C[C@H](C(=O)OCC)C(=O)O[C@H]2[C@@H](OC)O[C@H](CO)[C@@H](OC(=O)Nc3ccc4c(c3)OCO4)[C@@H]2OC1=O | -0.0843 (inactive) |
| COc1ccc([Si](C)(C)[C@H]2[C@H](CC(=O)N(CCO)Cc3ccccc3)O[C@@]3(C(=O)N(Cc4cccc(N5CCC5=O)c4)c4ccccc43)[C@@H]2C)cc1 | -1.2 (inactive) |

* * *

# test target: Streptavidin (Streptomyces avidinii)
# experiment: streptavidin binders on small-molecule microarray, primary screen, artefact control for SMM compound annotation, biophysical, 635/667 nm fluorescence (AID 1147);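 further: signal reflects streptavidin binding to arrayed compounds as a control protein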
# reported conditions: streptavidin binding, higher = more signal
Binary classification by composite z-score, with -0.1 as an inclusive lower bound for TRUE; all other cases are FALSE.

| compound | label class |
| --- | --- |
| CC(C)N1CC=CC23O[C@@H]4C=CCOC(=O)[C@@H]4[C@H]2C(=O)N(CCO)[C@@H]3C1=O (stereo partly drawn) | FALSE |
| Cc1cc(C)cc(N2C(=O)CS(=O)(=O)C2c2cccc([N+](=O)[O-])c2)c1 (stereo not drawn) | TRUE |
| O=C(CCN1CCOCC1)c1cccc(O)c1 | TRUE |
| CCOC(=O)C[C@H]1[C@H](OC(=O)c2ccccc2-c2ccccc2)[C@@H](NC(=O)Cc2ccc(OC)cc2)c2cc(OCCCO)ccc2N1C(=O)c1ccccc1 | FALSE |
| CC(C)N1C(=O)C[C@@](C(=O)NCc2ccccc2)(c2ccc([N+](=O)[O-])cc2)[C@H]1c1ccc(CO)cc1 | FALSE |
| COC(=O)c1ccc(C(O)C2C=CC3C(=O)N(C)C(=O)C3N2NC(=O)OC(C)(C)C)o1 (stereo not drawn) | TRUE |
| COc1ccc(C(=O)Nc2cccc(CN3C(=O)[C@]4(O[C@H](CC(=O)N5CCC[C@H]5CO)[C@@H]([Si](C)(C)c5ccc(OC)cc5)[C@@H]4C)c4ccccc43)c2)cc1 | FALSE |
| CCOC(=O)C1=CC[C@@H](c2ccccc2Cl)N(S(=O)(=O)c2ccc(C)cc2)C1 | TRUE |

* * *

Measured composite z-score of individual entries
# experiment: small-molecule microarray binders of probe aLefty2, primary screen, biochemical, biotinylated probe, 635/667 nm fluorescence (AID 1094);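 further: score merges spot fluorescence near 667 nm with spot signal-to-noise ratio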
# reported conditions: higher = more signal

| compound | composite z-score |
| --- | --- |
| C[N+](C)(C)CCCCCCNC(=O)[C@H]1C[C@H]2C(=O)N3CCC[C@H]3C(=O)N2[C@H]1c1ccc(O)cc1 | 0.0087 |
| C=CCN1C(=O)[C@]2(O[C@H](CCO)[C@@H]([Si](C)(C)c3ccc(OC)cc3)[C@@H]2C)c2cc(NC(=O)[C@H](C)O)ccc21 | -0.166 |
| COCCOC(=O)N1C(=O)[C@@]2(c3ccccc31)[C@H](C(=O)Nc1nc3ccccc3s1)[C@H]1C(=O)O[C@H](c3ccccc3)[C@H](c3ccccc3)N1[C@@H]2c1ccc(OCCO)cc1 | -0.0767 |
| CC=CC(O)C1C=CC2C(=O)N(c3ccccc3)C(=O)C2N1Nc1ccc(C(C)C)cc1 (stereo unspecified) | 0.183 |
| O=C1O[C@@H](c2ccccc2)[C@@H](c2ccccc2)N2[C@@H](c3ccc(OCCO)cc3)[C@]3(C(=O)Nc4ccc(C#CC5=CCCCC5)cc43)[C@@H](C(=O)O)[C@H]12 | 0.0919 |
| COCCOC(=O)N1C(=O)[C@@]2(c3cc(C#Cc4ccc(OC)cc4)ccc31)[C@H](C(=O)N1CCN(c3ncccn3)CC1)[C@H]1C(=O)O[C@H](c3ccccc3)[C@H](c3ccccc3)N1[C@@H]2c1ccc(O)cc1 | -0.247 |
